# system: ΔF508-CFTR (Homo sapiens, UniProt P13569, DEL508-508)
# Sequence (P13569 with tags, fused parts or gaps DEL508-508): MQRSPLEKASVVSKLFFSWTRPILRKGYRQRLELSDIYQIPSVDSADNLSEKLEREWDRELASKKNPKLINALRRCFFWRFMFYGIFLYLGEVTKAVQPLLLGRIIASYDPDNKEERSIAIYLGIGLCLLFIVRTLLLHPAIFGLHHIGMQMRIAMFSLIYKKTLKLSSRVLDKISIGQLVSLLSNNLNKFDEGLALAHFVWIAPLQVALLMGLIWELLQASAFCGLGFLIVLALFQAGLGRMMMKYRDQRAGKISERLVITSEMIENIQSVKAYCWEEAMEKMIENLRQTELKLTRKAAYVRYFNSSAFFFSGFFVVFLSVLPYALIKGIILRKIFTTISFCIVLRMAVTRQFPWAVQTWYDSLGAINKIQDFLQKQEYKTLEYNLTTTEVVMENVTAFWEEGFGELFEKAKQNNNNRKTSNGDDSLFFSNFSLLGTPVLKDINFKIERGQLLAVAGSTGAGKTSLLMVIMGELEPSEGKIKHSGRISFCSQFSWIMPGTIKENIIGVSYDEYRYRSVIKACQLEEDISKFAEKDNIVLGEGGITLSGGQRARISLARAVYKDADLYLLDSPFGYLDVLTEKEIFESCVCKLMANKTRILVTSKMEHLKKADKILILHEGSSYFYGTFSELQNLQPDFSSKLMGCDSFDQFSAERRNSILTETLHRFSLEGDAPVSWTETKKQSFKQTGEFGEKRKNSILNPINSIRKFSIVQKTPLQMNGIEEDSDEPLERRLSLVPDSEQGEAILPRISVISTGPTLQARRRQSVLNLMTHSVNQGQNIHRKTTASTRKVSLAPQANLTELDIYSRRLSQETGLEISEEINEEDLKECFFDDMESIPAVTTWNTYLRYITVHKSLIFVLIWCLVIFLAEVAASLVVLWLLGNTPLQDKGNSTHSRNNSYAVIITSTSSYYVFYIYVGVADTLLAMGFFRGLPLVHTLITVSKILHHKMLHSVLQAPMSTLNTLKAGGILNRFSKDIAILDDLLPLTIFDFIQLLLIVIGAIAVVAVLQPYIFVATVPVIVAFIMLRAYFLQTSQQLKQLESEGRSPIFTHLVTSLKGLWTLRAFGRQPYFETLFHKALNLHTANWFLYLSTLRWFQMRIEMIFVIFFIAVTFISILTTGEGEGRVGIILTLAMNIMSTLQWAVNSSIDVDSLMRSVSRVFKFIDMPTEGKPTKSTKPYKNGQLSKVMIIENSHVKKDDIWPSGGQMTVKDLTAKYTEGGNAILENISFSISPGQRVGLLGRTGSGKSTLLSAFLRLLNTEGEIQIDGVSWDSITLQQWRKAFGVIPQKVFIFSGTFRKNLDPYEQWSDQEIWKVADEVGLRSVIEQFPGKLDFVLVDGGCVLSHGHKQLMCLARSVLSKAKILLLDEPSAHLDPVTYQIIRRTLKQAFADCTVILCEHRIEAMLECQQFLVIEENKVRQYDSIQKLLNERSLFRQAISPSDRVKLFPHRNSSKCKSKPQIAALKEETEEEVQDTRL
# experiment description: Assays for detecting and measuring ΔF508-CFTR correction properties (membrane potential optical assay; Table 3 does not say which assay)
# condition description: IC50/EC50 bins; NIH3T3 mouse fibroblasts stably expressing ΔF508-CFTR; read-out: Binned EC50
pEC50: −log10 of the molar value.
attribute measured: pEC50

Consider the worked cases shown below.
* O=C(O)c1cccc(-c2nc(NC(=O)C3(c4ccc5c(c4)OC(F)(F)O5)CC3)cc3ccccc23)c1 | ≥ 5.70
* COc1ccc(C2(C(=O)Nc3cc4ccccc4c(N4CCOCC4)n3)CC2)cc1 | ≥ 5.70
* CN(C)CCOC(=O)c1cccc(-c2nc(NC(=O)C3(c4ccc5c(c4)OC(F)(F)O5)CC3)cc3ccccc23)c1 | ≥ 5.70
* O=C(Nc1cc2ccccc2c(-c2ccc3[nH]ccc3c2)n1)C1(c2ccc3c(c2)OC(F)(F)O3)CC1 | ≥ 5.70
* C[N+](C)(C)CCOC(=O)c1cccc(-c2nc(NC(=O)C3(c4ccc5c(c4)OC(F)(F)O5)CC3)cc3ccccc23)c1 | ≥ 5.70

Consider the additional compound presented here.
# pEC50 lookup, item Cc1cc2cc(-c3nc(NC(=O)C4(c5ccc6c(c5)OC(F)(F)O6)CC4)cc4ccccc34)ccc2[nH]1
≥ 5.70

Data origin: patent US8722704B2
